Biological target: T1, peanut allergen Ara h 1 (peanut (Arachis hypogaea)) (UniProt P43238)
T1 sequence (looked up): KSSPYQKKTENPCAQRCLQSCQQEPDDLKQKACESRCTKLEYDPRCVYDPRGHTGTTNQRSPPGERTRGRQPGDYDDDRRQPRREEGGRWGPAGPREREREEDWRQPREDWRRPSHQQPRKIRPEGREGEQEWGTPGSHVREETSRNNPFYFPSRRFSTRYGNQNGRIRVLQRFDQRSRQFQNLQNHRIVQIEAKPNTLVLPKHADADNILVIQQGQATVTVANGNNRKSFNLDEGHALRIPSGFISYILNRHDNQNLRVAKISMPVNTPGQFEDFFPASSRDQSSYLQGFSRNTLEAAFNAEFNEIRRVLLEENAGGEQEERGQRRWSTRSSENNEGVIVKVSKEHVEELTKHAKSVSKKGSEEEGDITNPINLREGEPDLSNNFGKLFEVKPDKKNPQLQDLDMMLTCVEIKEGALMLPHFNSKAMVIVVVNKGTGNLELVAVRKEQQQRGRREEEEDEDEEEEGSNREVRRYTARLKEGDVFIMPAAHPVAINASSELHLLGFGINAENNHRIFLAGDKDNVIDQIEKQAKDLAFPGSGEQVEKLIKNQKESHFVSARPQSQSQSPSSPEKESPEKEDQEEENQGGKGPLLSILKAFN
Test: ImmunoCAP, hybridoma supernatant
Overview of reported ImmunoCAP kUA/L across a group of binders:
Reply with just the number (in kUA/L).

// below: answered binders
human IgE mAb 3C3 (antibody, V domains shown) VH: QLQLQESGPGLVKPSETLSLTCSISGASINSDDYYWGWIRQAPGEALEWIASIDASGTTFYNPSLRSRVTISVDTSTNQISLRLNSVTAADTAIYYCARRKTYYDFLTDYYNWYFDVWGRGTLVTVSS VL: QSALTQPRSVSGSPGQSVTFSCTGINSDIRDYDYVSWYQQHPGEAPKLIIYDVTKRASGVPSRFSGSKSGNTASLTISGLQAEDEADYYCCSYSVTYSFEVFGTGTQVSVL; 0.6
human IgE mAb 3B7 (antibody, V domains shown) VH: QVQLVQSGSELKKPGASMKVSCKASGYTFTNYAMNWVRQAPGQGLEWMGWINTNTGKPTYAQGFTGRFVFSLDTSVSMAYLQISSLEAGDTAVYFCARGESLAALGSFAYWGQGTLVTVSS VL: DIQMTQSPSSLSASVGDRVTITCRASQSINSYLAWYQQKPGKAPNLLIYAASNLQSGVPSRFSGSGSGTDFTLTISSLQPEDFATYYCQQSSSTFWTFGQGTKVEIK; 0.3

Turning now to a further record.
Q: ImmunoCAP kUA/L lookup needed for human IgE mAb 26A5 (antibody, V domains shown) VH: QVQLVQSGSELRKPGASVKVSCKASGYTFTKYGMNWVRQAPGQGLEWMGWINTNTAKPTYAQDFTGRFVFSLDTSVNTAYLEISGLKAEDTAVYYCATDGSEGSWGQGTLVTVSS VL: DIQMTQSPSTLSASVGDRVTITCRASQSIGTWLAWHQQKPGTAPKVLIYKASNLKSGVPSRFSGSGSGTDFTLTISSLQPDDVATYYCQQYNTYSGTFGQGTRVEIK , thanks.
Ans: 0.15
